- MEASUREMENT TARGET: truncated human beta-secretase (residues 1-458, His6-tagged at the C-terminus) (Homo sapiens)
- Construct: truncated human beta-secretase (residues 1-458, His6-tagged at the C-terminus); His6 (C); made in house; host or cells: insect cells D. melanogaster S2 (baculovirus expression system (so in the source))
- PROTOCOL TEXT: BACE fluorescence quench assay
- Format: biochemical
- CONDITION CONTEXT: in vitro enzyme activity, BACE fluorescence assay, pH 4.5; read-out: IC50
pIC50: −log10 of the molar value.
READOUT NAME: pIC50

INSERT INTO measurements (compound, value_measured) VALUES
  ('CN1OC2(CC3(CCc4ccccc4CC3)Oc3ccc(-c4cccc(C#N)c4)cc32)N=C1N (stereo not shown)', '4.30 to 5.00'),
  ('COc1ccc(-c2ccc3c(c2)[C@]2(C[C@]4(CCCOC4)O3)N=C(N)N(C)C2=O)cc1OC', '5.30 to 6.00'),
  ('CN1C(=O)[C@@]2(C[C@]3(CCCOC3)Oc3ccc(-c4cc(F)cc(F)c4F)cc32)N=C1N', '6.30 to 7.00'),
  ('CCOC(=O)c1cccc(-c2ccc3c(c2)[C@]2(C[C@]4(CCCOC4)O3)N=C(N)N(C)C2=O)c1', '5.30 to 6.00');

* * *

Measured IC50 of individual entries
- MEASUREMENT TARGET: truncated human beta-secretase (residues 1-458, His6-tagged at the C-terminus) (Homo sapiens, UniProt P56817)
- Construct: truncated human beta-secretase (residues 1-458, His6-tagged at the C-terminus); His6 (C); made in house; host or cells: insect cells D. melanogaster S2 (baculovirus expression system (so in the source))
- Sequence (P56817 22-458): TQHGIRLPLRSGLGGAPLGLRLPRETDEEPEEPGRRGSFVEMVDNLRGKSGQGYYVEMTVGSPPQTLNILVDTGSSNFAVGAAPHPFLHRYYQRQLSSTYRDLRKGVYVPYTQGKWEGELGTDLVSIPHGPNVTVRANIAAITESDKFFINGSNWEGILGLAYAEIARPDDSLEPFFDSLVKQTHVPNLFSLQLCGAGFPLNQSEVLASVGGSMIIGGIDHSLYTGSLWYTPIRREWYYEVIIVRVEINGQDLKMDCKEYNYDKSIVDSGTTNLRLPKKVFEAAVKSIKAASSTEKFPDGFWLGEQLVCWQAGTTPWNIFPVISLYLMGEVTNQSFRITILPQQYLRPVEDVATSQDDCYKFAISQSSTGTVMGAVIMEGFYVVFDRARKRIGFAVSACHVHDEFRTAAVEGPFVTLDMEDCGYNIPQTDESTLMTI
- PROTOCOL TEXT: BACE fluorescence quench assay
- Assay type: biochemical
- CONDITION CONTEXT: in vitro enzyme activity, BACE fluorescence assay, pH 4.5; read-out: IC50
- Experimental: The assay was performed at room temperature in 96-well white opaque Optiplates aque Optiplates (PerkinElmer, Waltham, Mass.) in a total volume of 200 μl of the incubation mixture containing 50 mM sodium acetate buffer, pH 4.5, 0.4 μM FRET substrate, 2.4 nM enzyme, 5% DMSO, and 0.05% Brij-35. […] The reaction was started by addition of enzyme, and the progress of the reaction was followed by measuring fluorescence with an excitation wavelength of 480 nm and an emission wavelength of 520 nm. […]
READOUT NAME: IC50

INSERT INTO measurements (compound, value_measured) VALUES
  ('CN1O[C@@]2(C[C@]3(CCC(C(C)(C)C)C3)Oc3ccc(-c4cccc(C#N)c4)cc32)N=C1N (some centres unmarked) [Compound 127b]', '5000 to 10000 nM'),
  ('CC(C)=CC(CCO)[C@H]1C[C@@]2(N=C(N)N(C)O2)c2cc(-c3cc(F)cc(F)c3F)ccc2O1 (some centres unmarked) [Compound 420]', '1000 to 5000 nM'),
  ('CN1C(=O)C2(CC(C3CCCOC3)Oc3ccc(-c4cccc(C#N)c4)cc32)N=C1N (centres unmarked) [Compound 1]', '1 to 100 nM'),
  ('CN1OC2(CC(C3CCOC(C)(C)C3)Oc3ccc(-c4csc(-n5ccnc5)n4)cc32)N=C1N (centres unmarked) [Compound 370]', '500 to 1000 nM'),
  ('CN1C(=O)[C@@]2(CC(c3cccs3)Oc3ccc(-c4cccc(C#N)c4)cc32)N=C1N (stereo in doubt) [Compound 8b]', '1000 to 5000 nM'),
  ('CN1C(=O)C2(CC3(CCOCC3)Oc3ccc(-c4cccc(C#N)c4)cc32)N=C1N (centres unmarked) [Compound 77]', '100 to 500 nM'),
  ('COc1ccc(F)c(-c2ccc3c(c2)C2(CC(C4CCCOC4)O3)N=C(N)N(C)O2)c1 (centres unmarked) [Compound 91]', '100 to 500 nM'),
  ('CN1C(=O)C2(CC3(CCCCC3)Oc3ccc(-c4cccnc4)cc32)N=C1N (centres unmarked) [Compound 80]', '1000 to 5000 nM');
